Structures can show the parent of a compound that is named as a salt.
Consider the following IC50 cell viability values measured on PCB-490-5 (human epithelioid sarcoma primary culture).

stdin: Could you please provide reported IC50 cell viability for Cc1nnc(C(C)C)n1C1C[C@H]2CC[C@@H](C1)N2CC[C@H](NC(=O)C1CCC(F)(F)CC1)c1ccccc1 (stereo in doubt) [Maraviroc] ? Thanks!
stdout: > 10 µM

stdin: Return IC50 cell viability for the following compound: CC[C@H](C)n1cc(C)c2c(C(=O)NCc3c(C)cc(C)[nH]c3=O)cc(-c3ccc(N4CCNCC4)nc3)cc21 [GSK126]
stdout: > 10 µM

stdin: Name the recorded IC50 cell viability of the item C=CCn1c(=O)c2cnc(Nc3ccc(N4CCN(C)CC4)cc3)nc2n1-c1cccc(C(C)(C)O)n1 [MK-1775] in your answer.
stdout: > 10 µM

stdin: Give a short answer stating reported IC50 cell viability for O=c1ncccn1[C@@H]1O[C@H](CO)[C@@H](O)[C@H]1O [Zebularine] .
stdout: > 10 µM

stdin: Please give measured IC50 cell viability of the following entry: CC1(C)CCC(c2ccc(Cl)cc2)=C(CN2CCN(c3ccc(C(=O)NS(=O)(=O)c4ccc(N[C@H](CCN5CCOCC5)CSc5ccccc5)c(S(=O)(=O)C(F)(F)F)c4)cc3)CC2)C1 [ABT-263]
stdout: > 10 µM

stdin: Answer with reported IC50 cell viability of Cc1ccc(-c2cc(C(F)(F)F)nn2-c2ccc(S(N)(=O)=O)cc2)cc1 [Celecoxib]
stdout: > 10 µM

stdin: Report measured IC50 cell viability; entry is CO[C@H]1C[C@@H]2CC[C@@H](C)[C@@](O)(O2)C(=O)C(=O)N2CCCC[C@H]2C(=O)O[C@H]([C@H](C)C[C@@H]2CC[C@@H](O)[C@H](OC)C2)CC(=O)[C@H](C)/C=C(\C)[C@@H](O)[C@@H](OC)C(=O)[C@H](C)C[C@H](C)/C=C/C=C/C=C/1C [Sirolimus]
stdout: > 10 µM

stdin: For the compound COCC[n+]1c2c(n(Cc3cnccn3)c1C)C(=O)c1ccccc1C2=O [YM155] , report IC50 cell viability.
stdout: 0.16 µM

stdin: Output IC50 cell viability of `CS(=O)(=O)c1cccc(CNc2nc(Nc3ccc4c(c3)CCC(=O)N4)ncc2C(F)(F)F)c1`
stdout: > 10 µM

stdin: Quote IC50 cell viability reported for CN(C)C(=N)NC(=N)N [Metformin HCL] please.
stdout: > 10 µM

---

Structures can show the parent of a compound that is named as a salt.
This document collects IC50 cell viability values reported for FU-EPS-1.

stdin: Give reported IC50 cell viability for `COCC[n+]1c2c(n(Cc3cnccn3)c1C)C(=O)c1ccccc1C2=O` (FU-EPS-1)
stdout: 0.01 µM

stdin: Provide IC50 cell viability, system FU-EPS-1, entry `Cc1nc(Nc2ncc(C(=O)Nc3c(C)cccc3Cl)s2)cc(N2CCN(CCO)CC2)n1`
stdout: > 10 µM

stdin: Report IC50 cell viability from FU-EPS-1 testing of O=C(O)CC[C@H](O)C(=O)O [L-a-Hydroxyglutaric acid]
stdout: > 10 µM

stdin: Answer with IC50 cell viability of `CN(C(=O)c1ccc(F)cc1C(F)(F)F)C1CCN(c2nnc(-c3ccnn3C)c3ccccc23)CC1` measured for FU-EPS-1.
stdout: > 10 µM

stdin: Provide measured IC50 cell viability on FU-EPS-1 for `CO[C@H]1C[C@@H]2CC[C@@H](C)[C@@](O)(O2)C(=O)C(=O)N2CCCC[C@H]2C(=O)O[C@H]([C@H](C)C[C@@H]2CC[C@@H](O)[C@H](OC)C2)CC(=O)[C@H](C)/C=C(\C)[C@@H](O)[C@@H](OC)C(=O)[C@H](C)C[C@H](C)/C=C/C=C/C=C/1C` please.
stdout: > 10 µM

stdin: // fetch IC50 cell viability; item: `COc1cccc(OCCCN)c1-c1cc(Nc2cnc(C#N)cn2)n[nH]1` ; system: FU-EPS-1
stdout: > 10 µM

stdin: Param request: IC50 cell viability | system FU-EPS-1 | item `CN1CCC(CNc2ccc3ncc(-c4cccc(OC(F)(F)F)c4)n3n2)CC1`
stdout: 1.7 µM

stdin: For FU-EPS-1, give the measured IC50 cell viability of the entry `C[C@]1(O)C[C@@H](c2nc(-c3ccc4ccc(-c5ccccc5)nc4c3)c3c(N)nccn32)C1`
stdout: > 10 µM

stdin: Report value only: IC50 cell viability, FU-EPS-1, `Cc1cc(-c2ncc(CC(=O)Nc3ccc(-c4cnccn4)cn3)cc2C)ccn1`
stdout: > 10 µM

stdin: Give FU-EPS-1 IC50 cell viability for the following compound: Cn1cc(NC(=O)c2cc(NC(=O)CNC(=N)N)cn2C)cc1C(=O)NCCC(=N)N [Netropsin Dihydrochloride]
stdout: > 10 µM

stdin: // output IC50 cell viability; input `CCc1cnn2c(NCc3ccc[n+]([O-])c3)cc(N3CCCC[C@H]3CCO)nc12` ; system FU-EPS-1
stdout: > 10 µM

stdin: Return reported IC50 cell viability for target or system FU-EPS-1, item `C[C@@H](Oc1cc(-c2cnn(C3CCNCC3)c2)cnc1N)c1c(Cl)ccc(F)c1Cl` .
stdout: 0.94 µM

stdin: Give FU-EPS-1 IC50 cell viability for the following compound: CCOC(=O)CCNc1cc(N2CCc3ccccc3CC2)nc(-c2ccccn2)n1 [GSK-J4 HCl]
stdout: > 10 µM

stdin: Report value only: IC50 cell viability, FU-EPS-1, `Cc1ccc(S(=O)(=O)/C=C/C#N)cc1`
stdout: > 10 µM

stdin: System FU-EPS-1. Read-out IC50 cell viability. Item `C[C@@H](Oc1ccc2[nH]nc(/C=C/c3cnn(CCO)c3)c2c1)c1c(Cl)cncc1Cl` . Report value.
stdout: > 10 µM

stdin: Give reported IC50 cell viability for `COc1ccc(C[C@@H](C)[C@@H](C)Cc2ccc(OC)c(OC)c2)cc1OC` (FU-EPS-1)
stdout: > 10 µM

stdin: Please respond with reported IC50 cell viability (system FU-EPS-1) for COCC1(CO)C(=O)C2CCN1CC2 (stereo not drawn) .
stdout: > 10 µM

stdin: Give IC50 cell viability only, for `Clc1ccc(NN=C(c2ccccc2)c2ccccn2)nc1` , using FU-EPS-1 data.
stdout: 2.4 µM

---

Counter-ions that a name gives are not always drawn.
Hi! I'm sharing some IC50 cell viability results obtained with PCB-495.

stdin: Annotate the compound `CN(C(=O)c1ccc(F)cc1C(F)(F)F)C1CCN(c2nnc(-c3ccnn3C)c3ccccc23)CC1` with its measured IC50 cell viability.
stdout: > 10 µM

stdin: Give the measured IC50 cell viability for `N#CC[C@H](C1CCCC1)n1cc(-c2ncnc3[nH]ccc23)cn1`
stdout: > 10 µM

stdin: Read off the recorded IC50 cell viability for `CC1(C)CCC(c2ccc(Cl)cc2)=C(CN2CCN(c3ccc(C(=O)NS(=O)(=O)c4ccc(N[C@H](CCN5CCOCC5)CSc5ccccc5)c(S(=O)(=O)C(F)(F)F)c4)cc3)CC2)C1`
stdout: > 10 µM

stdin: Answer with the recorded IC50 cell viability of `Cc1cc(Nc2cc(N3CCN(C)CC3)nc(Sc3ccc(NC(=O)C4CC4)cc3)n2)n[nH]1` only.
stdout: > 10 µM

stdin: Dear colleague, please send me the reported IC50 cell viability for `CC[C@@H]1C(=O)N(C)c2cnc(Nc3ccc(C(=O)N[C@H]4CC[C@H](N5CCN(CC6CC6)CC5)CC4)cc3OC)nc2N1C(C)C` when you can.
stdout: 6.54 µM

stdin: Output measured IC50 cell viability for this item: COCC1(CO)C(=O)C2CCN1CC2 (centres undefined)
stdout: > 10 µM

stdin: Using known records, supply IC50 cell viability for CCOC(=O)CCNc1cc(N2CCc3ccccc3CC2)nc(-c2ccccn2)n1 [GSK-J4 HCl]
stdout: > 10 µM

stdin: Provide only the value of recorded IC50 cell viability for `C=CCn1c(=O)c2cnc(Nc3ccc(N4CCN(C)CC4)cc3)nc2n1-c1cccc(C(C)(C)O)n1`
stdout: > 10 µM

stdin: Tell me measured IC50 cell viability for `Cc1cc(-c2ncc(CC(=O)Nc3ccc(-c4cnccn4)cn3)cc2C)ccn1` please.
stdout: > 10 µM

stdin: Fill in reported IC50 cell viability for this entry: `CC(C)N(CCCNC(=O)Nc1ccc(C(C)(C)C)cc1)C[C@H]1O[C@@H](n2cc(Br)c3c(N)ncnc32)[C@H](O)[C@@H]1O`
stdout: 0.6 µM

stdin: Return IC50 cell viability for the following compound: `COCC[n+]1c2c(n(Cc3cnccn3)c1C)C(=O)c1ccccc1C2=O`
stdout: 0.07 µM

stdin: Give the reported value of IC50 cell viability for this record: `Nc1nc(Nc2ccc(S(N)(=O)=O)cc2)nn1C(=S)Nc1c(F)cccc1F`
stdout: 0.42 µM

stdin: Entry `CNC(=O)CN1CCC(Oc2cc3c(Nc4cccc(Cl)c4F)ncnc3cc2OC)CC1` needs its IC50 cell viability filled in; supply it.
stdout: > 10 µM

stdin: Output measured IC50 cell viability for this item: `COc1cc2nc(N3CCCN(C)CC3)nc(NC3CCN(Cc4ccccc4)CC3)c2cc1OC`
stdout: 1.38 µM

stdin: Give IC50 cell viability for `C=C[C@@]1(C)CC(=O)[C@]2(O)[C@@]3(C)[C@@H](O)CCC(C)(C)[C@@H]3[C@H](O)[C@H](OC(C)=O)[C@@]2(C)O1`
stdout: > 10 µM

stdin: Determine its reported IC50 cell viability: `Clc1ccc(NN=C(c2ccccc2)c2ccccn2)nc1`
stdout: 1.14 µM

stdin: For the compound `O=C1NC(=O)C(c2cnc3ccccn23)=C1c1cn2c3c(cc(F)cc13)CN(C(=O)N1CCCCC1)CC2` , report IC50 cell viability.
stdout: > 10 µM

stdin: Query IC50 cell viability for CC(C)n1c(/C=C/C(O)CC(O)CC(=O)O)c(-c2ccc(F)cc2)c2ccccc21 (centres undefined)
stdout: 0.08 µM

stdin: Give IC50 cell viability for the following compound: `CC[C@H](C)n1cc(C)c2c(C(=O)NCc3c(C)cc(C)[nH]c3=O)cc(-c3ccc(N4CCNCC4)nc3)cc21`
stdout: > 10 µM

stdin: Identify the reported IC50 cell viability for the following entry. `Cc1ccc(S(=O)(=O)/C=C/C#N)cc1`
stdout: > 10 µM

stdin: Assign IC50 cell viability to the following record: `CO[C@@H]1[C@H](N(C)C(=O)c2ccccc2)C[C@H]2O[C@]1(C)n1c3ccccc3c3c4c(c5c6ccccc6n2c5c31)C(=O)NC4`
stdout: 1.36 µM

stdin: Provide one value: measured IC50 cell viability of `O=C(O)c1ccc2c(c1)nc(Nc1cccc(Cl)c1)c1ccncc12`
stdout: > 10 µM

stdin: Specify IC50 cell viability for `O=c1ncccn1[C@@H]1O[C@H](CO)[C@@H](O)[C@H]1O` and stop.
stdout: > 10 µM

stdin: Tell us which IC50 cell viability value is on record for `COc1cccc(OCCCN)c1-c1cc(Nc2cnc(C#N)cn2)n[nH]1`
stdout: 3.17 µM

stdin: Return IC50 cell viability (reported value) for this compound: `CC(=O)c1c(C)c2cnc(Nc3ccc(N4CCNCC4)cn3)nc2n(C2CCCC2)c1=O`
stdout: > 10 µM

stdin: // fetch IC50 cell viability given entry `Nc1ccccc1NC(=O)c1ccc(CNC(=O)OCc2cccnc2)cc1`
stdout: > 10 µM

stdin: Given `C[C@]1(O)C[C@@H](c2nc(-c3ccc4ccc(-c5ccccc5)nc4c3)c3c(N)nccn32)C1` , respond with its IC50 cell viability.
stdout: > 10 µM

stdin: Tell me IC50 cell viability reported for Cc1nnc(C(C)C)n1C1C[C@H]2CC[C@@H](C1)N2CC[C@H](NC(=O)C1CCC(F)(F)CC1)c1ccccc1 (stereo in doubt)
stdout: > 10 µM

stdin: Name the recorded IC50 cell viability of the item `CS(=O)(=O)c1cccc(CNc2nc(Nc3ccc4c(c3)CCC(=O)N4)ncc2C(F)(F)F)c1` in your answer.
stdout: > 10 µM
